- System: KM20L2 colon
- assay-name: NCI tumour cell line growth inhibition, 48 h
measured-parameter: TGI

Cc1ccc(-c2cc(-c3ccco3)nc(N)n2)o1 :: > 100 µM
COC(=O)/C(=C/c1ccc(OC)cc1)C(C(=O)O)=C(C)C :: > 100 µM
COc1cc2c(cc1OC)C1c3ccccc3C(C#N)(C2)N(C(=O)c2ccccc2)C1O (stereo not given) :: > 100 µM
COC1/C=C/O[C@@]2(C)Oc3c(C)c(O)c4c(O)c(cc(O)c4c3C2=O)NC(=O)/C(C)=C\C=C\[C@H](C)C(O)[C@@H](C)[C@@H](O)[C@@H](C)[C@H](OC(C)=O)[C@@H]1C (stereo not given in full) :: 30.5 µM

The record that follows has no TGI shown yet.
So what's the measured TGI for this one? OCC(O)COc1ccc(Br)cc1 (stereo not given)
> 100 µM

* * *

# maps each entry to its TGI
- Test system: PC-3 prostate
- assay-name: NCI tumour cell line growth inhibition, 48 h
Where a SMILES comes first, the peptide text is derived from it. [ ]: non-standard residue; d: D form. The star is where a group is joined. hSer = N[CH](CCO)C(=O)O; Boc = CC(C)(C)OC(=O)*

Consider the following illustrative entries.
N#Cc1[nH]c(=O)n(-c2ccc([N+](=O)[O-])cc2)c1N :: > 10 µM
O=C1Nc2ccc(Cl)cc2/C1=C\c1c(-c2ccc(F)cc2)nc2ccccn12 :: 8.36 µM
Cc1cc(-c2ccc(C(=O)C(Cl)(Cl)Cl)[nH]2)on1 :: > 100 µM
CCCC[C@@H]1NC(=O)[C@H](CCCCN)NC(=O)[C@H](CCCNC(=N)N)NC(=O)[C@H](CC(C)C)NC(=O)[C@@H](NC(=O)[C@H](Cc2cccc(Cl)c2)NC(=O)[C@@H]2CCCN2C(=O)[C@@H](NC(C)=O)C(C)C)CCSSC[C@@H](C(=O)N[C@@H](CCCCN)C(=O)N2CCC[C@H]2C(=O)N2CCC[C@H]2C(=O)N[C@@H](CCC(=O)O)C(N)=O)NC(=O)[C@H](Cc2ccccc2)NC(=O)[C@H](CO)NC(=O)[C@H](C)NC(=O)[C@@H]2CCCN2C1=O :: > 50 µM
Brc1c[n+](Cc2ccc3ccccc3c2)cn1Cc1ccc2ccccc2c1 :: 3.62 µM

So what's the measured TGI for this one? O=C(NNc1nc2cc(F)ccc2n2c(CN3CCOCC3)ccc12)c1ccccc1
3.05 µM

So what's the measured TGI for this one? COc1ccc(C(CC(=O)c2ccccc2)C(C(=O)c2ccccc2)C(c2ccc(OC)cc2)C2C(=O)NC(=O)NC2=O)cc1 (configuration not stated)
> 100 µM

So what's the measured TGI for this one? C=CC1CC12C(=O)C1OC2(C)C2C(=O)c3ccccc3C(=O)C12 (configuration not stated)
> 100 µM

So what's the measured TGI for this one? O=S(=O)(Nc1ccc(-c2nc(-c3cccc(OCCN4CCOCC4)c3)c(-c3ccnc(Br)c3)[nH]2)cc1)c1ccccc1
36.6 µM

So what's the measured TGI for this one? COCCC(NC(=O)C(CC(C)C)NC(=O)OC(C)(C)C)C(N)=O (stereo not drawn) (Boc-Leu-[hSer](Me)-NH2; configuration not given here)
> 100 µM

So what's the measured TGI for this one? COc1ccc(C(=O)C2CC3(CCC2(O)c2ccc(OC)cc2)CC(=O)Nc2ccccc2C3=O)cc1 (configuration not stated)
> 100 µM

So what's the measured TGI for this one? COc1ccc2c(c1)C(=O)c1c-2c(NCCCN(C)C)nc2ccccc12
14.2 µM

So what's the measured TGI for this one? COc1c(C2(c3ccc(F)cc3)SCCCS2)c(=O)c1=O
> 100 µM

So what's the measured TGI for this one? CCOC(=O)c1ccc(NC2Oc3cc4c(cc3C(c3cc(OC)c(OC)c(OC)c3)C2C)OCO4)cc1 (configuration not stated)
> 100 µM

So what's the measured TGI for this one? CC1=CC[C@@H]2[C@@H](CC[C@@]2(C)O)C(C)(C)[C@H]1CC[C@@H]1[C@@]2(C)CCC(=O)C(C)(C)O[C@@H]2CC[C@]1(C)O
> 100 µM

* * *

- System: TK-10 renal
- assay-name: NCI tumour cell line growth inhibition, 48 h; in the data active = GI50 below about 0.43 µM; inactive = the rest
# valid calls are yes (1) for active, no (0) for inactive; nothing else

C[C@@H]1O[C@@H](O[C@H]2C[C@@H](O)[C@]3(CO)C4C(CC[C@]3(O)C2)[C@@]2(O)CC[C@H](C3=CC(=O)OC3)[C@@]2(C)C[C@H]4O)[C@H](O)[C@H](O)[C@H]1O (stereo partly specified) :: yes (1)
COc1ccccc1-c1cc2c3c(nc4ccccc42)C(=O)c2cccnc2-c3n1 :: no (0)
Cc1ccc(S(=O)(=O)N(C)C)cc1[N+](=O)[O-] :: no (0)
Brc1c[n+](Cc2ccc3ccccc3c2)cn1Cc1ccc2ccccc2c1 :: no (0)
COc1ccc(-c2cc3cccc(OC)c3c(=O)o2)cc1OC :: no (0)

Next:
Hi, sorry to bother you, what did the test record for O=C1OCC(c2ccc(O)c(O)c2)=C1c1cc(O)c(O)c(O)c1 ?
no (0)

* * *

- Test system: OVCAR-5 ovarian
- assay-name: NCI tumour cell line growth inhibition, 48 h
# maps each entry to its TGI

Consider the following illustrative entries.
COC1=CC(c2ccc[nH]2)=N/C1=C\c1[nH]c(C)c(C(=O)CCC(=O)Oc2ccc3c(c2)CCC2C3CC[C@]3(C)C(=O)CC[C@@H]23)c1C (some centres undefined) :: > 81.6 µM
O=C(CCSC(CC(=O)c1ccc(Cl)cc1)c1ccc(Cl)cc1)Nc1ccc(Cl)cc1 (centres undefined) :: 31.6 µM
NC1=CN(CCCO)C2=N/C(=C\c3ccco3)C(=O)N12 :: > 100 µM

State its TGI on OVCAR-5 ovarian: CN(NC(=O)c1ccco1)C1=NCCCCN1
> 100 µM

State its TGI on OVCAR-5 ovarian: O=C1Nc2ccccc2C(=O)OC(Cc2ccccc2)=Nc2ccccc21
> 100 µM

State its TGI on OVCAR-5 ovarian: CC(C)(C)C1CCC2c3c([nH]c4ccccc34)C3C(=O)N(c4cc(Br)cc(Br)c4)C(=O)C3C2C1 (centres undefined)
> 100 µM

State its TGI on OVCAR-5 ovarian: O=c1cnn(C2OC(CO)C(O)C(F)C2O)c(=O)[nH]1 (centres undefined)
> 100 µM

State its TGI on OVCAR-5 ovarian: O=C(NO)c1ccc(C(=O)NO)cc1
> 100 µM

State its TGI on OVCAR-5 ovarian: NCCC1(N)CCNCC1
> 100 µM

State its TGI on OVCAR-5 ovarian: Cc1oc2ccccc2c(=O)c1Cn1nnc2ccccc21
> 100 µM

State its TGI on OVCAR-5 ovarian: CCC1(O)C=CC(=O)C=C1
> 100 µM

State its TGI on OVCAR-5 ovarian: CSc1nc2c(c(N(C)C)n1)C=Nn1c(nc3ccccc31)S2
> 100 µM

State its TGI on OVCAR-5 ovarian: CC(NC(=O)c1ccccc1)C(=O)N(Cc1ccccc1)Cc1ccccc1 (centres undefined)
> 100 µM

* * *

- Test system: SK-MEL-5 melanoma
- assay-name: NCI tumour cell line growth inhibition, 48 h; in the data active means GI50 below about 0.43 µM; inactive means the rest
# valid calls are y = active, n = inactive; nothing else

Use the examples below as a reference point.
COC1=CC(c2ccc[nH]2)=N/C1=C\c1[nH]c(C)c(C(=O)CCC(=O)Oc2ccc3c(c2)CCC2C3CC[C@]3(C)C(=O)CC[C@@H]23)c1C (some centres undefined) :: n
COc1ccc2c(c1)C(=O)c1c-2c(NCCCN(C)C)nc2ccccc12 :: n
CO/N=C(\c1ccccc1)c1cnn(-c2ccccc2)c1N :: n
O=S(=O)(Nc1ccc(-c2nc(-c3cccc(OCCN4CCOCC4)c3)c(-c3ccnc(Br)c3)[nH]2)cc1)c1ccccc1 :: n
COc1ccccc1-c1cc2c3c(nc4ccccc42)C(=O)c2cccnc2-c3n1 :: n

Hi, sorry to bother you, what did the test record for Nc1ccccc1C#C/C=C\C#Cc1ccc(F)cc1F ?
n

Hi, sorry to bother you, what did the test record for C=CC1CC12C(=O)C1OC2(C)C2C(=O)c3ccccc3C(=O)C12 (centres undefined) ?
n

Hi, sorry to bother you, what did the test record for COc1cc2c(-c3nc4cc(Cl)c(F)cc4s3)cc(=O)oc2c(C)c1OC ?
n

Hi, sorry to bother you, what did the test record for CCCOC(=O)N[C@H]1CCc2c(Br)c(OC)c(OC)c(OC)c2-c2ccc(SC)c(=O)cc21 ?
y

* * *

- System: CCRF-CEM leukemia
- assay-name: NCI tumour cell line growth inhibition, 48 h
measured-parameter: TGI

COc1ccc(CC(=O)c2cc(OC)c(OC)cc2C)cc1OC :: > 100 µM
Fc1cccc(F)c1C1SCC2=Nc3ccccc3CN21 (stereo unspecified) :: > 100 µM
CC1C(c2ccc(N(C)C)cc2)c2cc3c(cc2OC1N1CCCC1)OCO3 (stereo unspecified) :: > 100 µM
COC(=O)C1Cc2c(C)cccc2C1=O (stereo unspecified) :: > 100 µM

So what's the measured TGI for this one? COc1cc2c(cc1OC)C1c3ccccc3C(C#N)(C2)N(C(=O)c2ccccc2)C1O (stereo unspecified)
> 100 µM

So what's the measured TGI for this one? Nc1ccccc1C#C/C=C\C#Cc1ccc(F)cc1F
10.9 µM

So what's the measured TGI for this one? COc1ccc(-c2nc(-c3nc4ccc(F)cc4[nH]3)cc3c2[nH]c2ccccc23)cc1
25.6 µM
